The reported numbers originate from patent US20230374132A1.

Quick reference for koff among some binders
- system tested: T1, human CD3E&G complex (Sino Biological Inc., CT041-H0305H) (human, UniProt P07766 23-126; P09693 23-116)
- T1 construct: bought heterodimer; also called human CD3E&G antigen
- T1 sequence (P07766 23-126, chain 1 of 2): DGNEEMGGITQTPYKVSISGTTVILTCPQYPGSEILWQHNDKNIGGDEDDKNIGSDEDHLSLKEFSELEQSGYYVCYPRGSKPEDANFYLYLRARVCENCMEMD
- T1 sequence (P09693 23-116, chain 2 of 2): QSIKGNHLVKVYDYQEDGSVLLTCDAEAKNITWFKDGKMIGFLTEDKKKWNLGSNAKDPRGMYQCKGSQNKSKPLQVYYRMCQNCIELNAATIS
- protocol notes: BLI, antibody on sensor
Value expressed in s⁻¹; do not type the unit.

binder	units label	koff
hzsp34.105 (antibody, human IgG1, lambda, L234A L235A, V domains shown, CDR mutant of hzsp34.24; IgG1 L234A L235A, lambda) VH: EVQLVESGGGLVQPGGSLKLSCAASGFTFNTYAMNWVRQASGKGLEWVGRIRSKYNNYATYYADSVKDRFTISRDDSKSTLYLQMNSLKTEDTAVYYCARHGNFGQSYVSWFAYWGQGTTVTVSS VL: QAVVTQEPSLTVSPGGTVTLTCRSSTGAVTTRNYANWVQQKPGQAPRGLIGGTNKRAPGVPARFSGSLLGDKAALTLLGAQPEDEAEYYCALWYSNLWVFGQGTKLTVLG	s⁻¹	0.0021

Query :: Request the reported koff associated with hzsp34.94 (antibody, human IgG1, lambda, L234A L235A, V domains shown, CDR mutant of hzsp34.24; IgG1 L234A L235A, lambda) VH: EVQLVESGGGLVQPGGSLKLSCAASGFTFNTYAMNWVRQASGKGLEWVGRIRSKYNNYATYYADSVKDRFTISRDDSKSTLYLQMNSLKTEDTAVYYCARHGNFGQSYASWFAYWGQGTTVTVSS VL: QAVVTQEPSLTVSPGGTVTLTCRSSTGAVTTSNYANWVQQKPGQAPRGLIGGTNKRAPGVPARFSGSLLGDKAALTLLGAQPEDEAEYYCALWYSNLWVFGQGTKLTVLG
Result :: 0.000821

Query :: Item: hzsp34.91 (antibody, human IgG1, lambda, L234A L235A, V domains shown, CDR mutant of hzsp34.24; IgG1 L234A L235A, lambda) VH: EVQLVESGGGLVQPGGSLKLSCAASGFTFNTYAMNWVRQASGKGLEWVGRIRSKYNNYATYYADSVKDRFTISRDDSKSTLYLQMNSLKTEDTAVYYCARHGNFGGSYVSWFAYWGQGTTVTVSS VL: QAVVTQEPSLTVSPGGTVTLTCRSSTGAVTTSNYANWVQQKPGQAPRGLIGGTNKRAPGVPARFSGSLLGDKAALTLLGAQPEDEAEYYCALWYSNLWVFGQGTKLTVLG
Result :: 0.00195
